# Read-out: Intercellular Adhesion Molecule 1 (ICAM1), ICAM1 (gene 3383)
# ASSAY: LTEA_HepaRG_ICAM1: Life Technologies and Expression Analysis (LTEA) Assay for Intercellular Adhesion Molecule 1 (ICAM1) using HepaRG (AID 2283507)
# REPORTED_CONDITIONS: mRNA level, 48 h; actives raise or lower the signal
# Experimental: LTEA_HepaRG is a cell based, multiplexed-readout assay that uses HepaRG, a human liver cell line, with measurements taken at 48 hours after chemical dosing on a 96-well plate.LTEA_HepaRG_ICAM1 is one of 102 assay component(s) measured in the LTEA HepaRG cell culture assay. It is a marker of Fibrosis.Data from the assay component LTEA_HepaRG_ICAM1 was analyzed into 1 endpoint. […]
Active and inactive are the calls of the source. Rule for the calls: active = hit-call score of the fitted dose curve at least 0.9, where 1 is the maximum; inactive = score below 0.9.
Labels: TRUE for active, FALSE for inactive

- O=C1c2c(O)cccc2Cc2cccc(O)c21: FALSE
- O=C(NS(=O)(=O)/C=C/c1cccs1)c1ccc(F)cc1Br: FALSE
- CC(C)c1cccc(C(C)C)c1: FALSE
- NCCOCCOCCN: FALSE
- NC1CCCCC1: FALSE
- CC(=O)O[C@]1(C(C)=O)CC[C@H]2[C@@H]3C=C(Cl)C4=CC(=O)[C@@H]5C[C@@H]5[C@]4(C)[C@H]3CC[C@@]21C: FALSE
- Oc1ccc(O)cc1: FALSE
- O=C(O)c1[nH]n(-c2ccc(S(=O)(=O)O)cc2)c(=O)c1N=Nc1ccc(S(=O)(=O)O)cc1: FALSE
- O=Cc1ccccc1C=O: FALSE
- CC(COCC(C)OC(=O)c1ccccc1)OC(=O)c1ccccc1 (stereo unspecified): FALSE
- NC(=Nc1ccccc1)Nc1ccccc1: FALSE
- O=C(N[C@@H](c1ccccc1)[C@@H]1CCCCN1)c1cccc(C(F)(F)F)c1Cl: TRUE
- COC(=O)[C@H]1[C@H]2C[C@@H]3c4[nH]c5cc(OC)ccc5c4CCN3C[C@H]2C[C@@H](OC(=O)c2cc(OC)c(OC)c(OC)c2)[C@@H]1OC: TRUE
- O=C(O)CN(CC(=O)O)CC(=O)O: FALSE
- CCCCCCCCCCCCCCCCO: FALSE
- CCCCCCC(CCCCCCCCCCC(=O)OCC(COC(C)=O)OC(C)=O)OC(C)=O (stereo unspecified): FALSE
- COC(=O)CCCC(=O)OC: FALSE
- CC(C)NCC(O)c1ccc(O)c(O)c1 (stereo unspecified): FALSE
- CN(C)C(=O)NC1(c2ccccc2)CCN(CCC[C@]2(c3ccc(Cl)c(Cl)c3)CCCN(C(=O)c3ccccc3)C2)CC1: TRUE
- CC(C)OC(=O)C(C)(C)Oc1ccc(C(=O)c2ccc(Cl)cc2)cc1: FALSE
- OCC(CO)n1cnc(-c2ccc(F)cc2)c1-c1ccnc(Oc2ccccc2)n1: FALSE
- Nc1nc(Cl)nc2c1ncn2[C@H]1C[C@H](O)[C@@H](CO)O1: FALSE
- C=CCc1ccc(OC)c(OC)c1: FALSE
- O=C1O[C@H]([C@H](O)CO)C(O)=C1O: FALSE
- C=CCCCCCCCCCCCC: FALSE
- N[C@@H](Cc1c[nH]c2ccccc12)C(=O)O: FALSE

====

# ASSAY: BSK_hDFCGF_SRB: Viability Assessment in the BioMAP Diversity Plus: hDFCGF Assay (AID 2283061);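 note: cells exposed to compound for 24 h before the read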
# REPORTED_CONDITIONS: primary human foreskin fibroblasts
Active and inactive are the calls of the source. The calls were made as follows: active = hit-call score of the fitted dose curve at least 0.9, where 1 is the maximum; inactive = score below 0.9.
Labels: active, inactive

* NC(=Nc1ccccc1)Nc1ccccc1 | inactive
* CCN(CC)CCOc1ccc(C(=C(Cl)c2ccccc2)c2ccccc2)cc1 | active
* CN(C)C(=O)NC1(c2ccccc2)CCN(CCC[C@]2(c3ccc(Cl)c(Cl)c3)CCCN(C(=O)c3ccccc3)C2)CC1 | inactive
* CCc1nc(N)nc(N)c1-c1ccc(Cl)cc1 | inactive
